These data points were gathered from ChEMBL document CHEMBL1125315.

STUDY SYSTEM: Human immunodeficiency virus type 1 reverse transcriptase (Human immunodeficiency virus 1)
Mark T only when IC50 stays strictly below 1 µM. Values equal to the cut-off are F.

Please state whether IC50 is below 1 µM for CCc1cc(NCc2nc3c(Cl)ccc(Cl)c3o2)c(S)nc1C
T

Regarding CCc1cc(NCc2nc3ccc(C)cc3o2)c(=O)[nH]c1C , kindly confirm whether its IC50 is beneath 1 µM.
F

Problem: For the compound CCc1cc(NCc2nc3cc(F)ccc3o2)c(=O)[nH]c1C , is IC50 under 1 µM?
T

Threshold test, IC50 < 1 µM: CCc1cc(NCc2nc3c(C)cccc3o2)c(O)nc1C
T

Field: below-cutoff. Rule: recorded IC50 strictly less than 1 µM. Subject: CCc1cc(NCc2cc3ccccc3s2)c(O)nc1C
T

In the record for CCc1cc(NCc2cccc3ccccc23)c(=O)[nH]c1C , is IC50 less than 1 µM?
F

Dear colleague, could you confirm whether IC50 of CCc1cc(NCc2oc3ccccc3c2C)c(=O)[nH]c1C falls below 1 µM? Thanks.
F

Is 1 µM strictly greater than the compound's reported IC50? compound: CCc1cc(NCc2nc3c(OC)cccc3o2)c(=O)[nH]c1C
T

is_below(IC50, 1 µM) for CCc1cc(NCc2cccnc2)c(=O)[nH]c1C ?
F

Please determine if CCc1cc(NCc2nc3c(O)cccc3o2)c(=O)[nH]c1C is below 1 µM in terms of IC50.
T

API: query returns whether the compound falls strictly under 1 µM in IC50. Query: CCc1cc(NCc2ccccn2)c(O)nc1C
F

Hi there! Is IC50 for Cc1[nH]c(=O)c(NCc2nc3ccccc3o2)cc1S(C)(=O)=O below 1 µM, do you know?
F

IC50 under 1 µM? Item: CCc1cc(N(C)Cc2nc3c(Cl)ccc(Cl)c3o2)c(=O)[nH]c1C
T

Please determine if CCSc1cc(NCc2nc3ccccc3o2)c(=O)[nH]c1C is below 1 µM in terms of IC50.
T

A record lists CCc1cc(NCc2nc3c(Cl)cccc3o2)c(O)nc1C . Is its IC50 below 1 µM?
T

Is it true that IC50 reported for CCc1cc(NCc2ccc3ccccc3c2)c(=O)[nH]c1C is less than 1 µM?
T

Hello, I'm reviewing records and need to know if IC50 of CCc1cc(NCc2nc3c(N)cccc3o2)c(O)nc1C is below 1 µM. Could you check?
F

Decide: IC50 of CCc1cc(NCc2cc3cccc(Cl)c3o2)c(O)nc1C strictly below 1 µM?
T

Lab note: confirm whether the reported IC50 for this compound is below 1 µM, equality not counting. compound: CCc1cc(NCc2cc3ccccc3[nH]2)c(=O)[nH]c1C
F

Please let me know if CCc1cc(NCc2nc3c([N+](=O)[O-])cccc3o2)c(O)nc1C shows IC50 below 1 µM.
F

IC50 under 1 µM? Item: CSc1cc(NCc2nc3ccccc3o2)c(O)nc1C
T

Lab note: confirm whether the reported IC50 for this compound is below 1 µM, equality not counting. compound: Cc1nc(O)c(NCc2nc3ccccc3o2)cc1[S+](C)[O-] (stereo not given)
F

In plain terms, does CCc1cc(NCc2nc3cccc(F)c3o2)c(=O)[nH]c1C come in under 1 µM for IC50?
T

Just wondering, is IC50 of CCc1cc(NC(C)c2cc3ccccc3o2)c(=O)[nH]c1C (stereo not given) below 1 µM?
T

is_below(IC50, 1 µM) for Cc1[nH]c(=O)c(NCc2nc3c(Cl)ccc(Cl)c3o2)cc1C(C)O (stereo not given) ?
F

I wonder whether CCc1cc(NCc2cnc3ccccc3c2)c(=O)[nH]c1C has IC50 below 1 µM. Can you tell?
T

Does the reported IC50 of CCc1cc(NCc2nc3cccc(Cl)c3o2)c(=O)[nH]c1C stay below 1 µM?
T

Threshold test, IC50 < 1 µM: CCc1cc(NCc2cc3cnccc3o2)c(=O)[nH]c1C
F

Quick check: IC50 of CCc1cc(NCc2nc3ncccc3o2)c(O)nc1C under 1 µM?
F

Input CC(=O)c1cc(NCc2nc3c(Cl)ccc(Cl)c3o2)c(O)nc1C ; condition: IC50 strictly below 1 µM. Does it hold?
T

Record CCc1cc(NCc2nc3ccc(F)cc3o2)c(=O)[nH]c1C : is its IC50 strictly below 1 µM?
F

Is it true that IC50 reported for CCc1cc(NCc2ccco2)c(=O)[nH]c1C is less than 1 µM?
F

Threshold test, IC50 < 1 µM: CCc1cc(NCc2c[nH]c3ccccc23)c(O)nc1C
F

Does the reported IC50 of CCc1cc(NCc2nc3ccccc3c(=O)[nH]2)c(=O)[nH]c1C stay below 1 µM?
F

Does C=Cc1cc(NCc2nc3c(Cl)ccc(Cl)c3o2)c(=O)[nH]c1C have IC50 strictly under 1 µM?
T

Please check: IC50 for CCc1cc(NCc2coc3ccccc3c2=O)c(=O)[nH]c1C , strictly under 1 µM or not?
F

Could you please tell me whether IC50 recorded for CCc1cc(NCc2nc3ccccc3[nH]2)c(O)nc1C is less than 1 µM?
F

# check: IC50 < 1 µM for CCc1cc(NCc2ccccc2)c(=O)[nH]c1C
F

Does CSc1cc(NCc2nc3c(Cl)ccc(Cl)c3o2)c(O)nc1C have IC50 strictly under 1 µM?
T

Identify whether the compound CCc1cc(NCc2ccc3ccccc3n2)c(=O)[nH]c1C records IC50 below 1 µM.
T
